- system: HLA-A*02:02
- test protocol: IEDB peptide-MHC binding, purified MHC/competitive/radioactivity; filed as Kd, often an IC50 or EC50 that approximates it; bounds were set here for any values at or beyond the usual limits of such assays
- recorded conditions: source organism: Vaccinia virus WR
readout type: Kd (nM)
The reply should be a number in nM, with the unit left off.

The recorded Kd with HLA-A*02:02 for IVSLCPTKKL was 9.46

Kindly note: HLA-A*02:02, PTNDIPSLFI , Kd value reported: 11000

With HLA-A*02:02 as the test system, GTKGKLYIAL showed Kd of 9070

Entry RILSEKRKDT ; assay system HLA-A*02:02; Kd recorded at 711

GIKNLKSLL on HLA-A*02:02 gives Kd = 2140

HLA-A*02:02 Kd of IISLFYTFAI is 108

Given the sequence DLLNVTYNI and test system HLA-A*02:02, the measured Kd is 297

Test item AIDRQVSVKL ; HLA-A*02:02; reported Kd was 7900

Noted Kd for DVERLQMAGV , tested on HLA-A*02:02: 215

Form field, Kd with HLA-A*02:02, item ALYSPPLISI : 1.42

Recorded Kd for ALLSCIRNA on HLA-A*02:02 was 120
